target: ZFP SBS#246 (synthetic); test: EMSA; conditions: tags: MBP fusion
Sequence (chain, as listed by the source): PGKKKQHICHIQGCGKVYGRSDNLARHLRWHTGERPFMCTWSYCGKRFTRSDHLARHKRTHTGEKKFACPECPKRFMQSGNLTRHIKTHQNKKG
Metric name: Kd (nM)
Reply numerically in nM, unit not repeated.

*Q* Look up Kd for this binder: GAAGGGGAG (dsDNA) DNA 1: GAAGGGGAG DNA 2: CTCCCCTTC
*A* 2
